# test: in vitro
# test conditions: mouse
parameter measured: CLint scaled

Data request: Could you tell me which CLint scaled is on file for `NC(=O)c1cncc(OC(=O)N2CCC(CCc3cccc(C(=O)N4CCCC4)c3)CC2)c1` ?
Data returned: 90 mL/min/kg

====

# test: Pharmacokinetics / oral bioavailability in male CD-1 mice
# Assay type: in vivo
# test conditions: male, CD-1, mouse, in vivo; 10 mg/Kg PO
parameter measured: AUC(0-t) (ng·h/mL)
Write the answer as a number in ng·h/mL, unit excluded.

Data request: Could you tell me which AUC(0-t) is on file for O=C(Nc1ccccc1)N1CCN(Cc2cccc(OCCC3CCCCC3)c2)CC1 [MGH-CP-715] ?
Data returned: 394

====

# test: Pharmacokinetics / oral bioavailability in male CD-1 mice
# Format: in vivo
# test conditions: male, CD-1, mouse, in vivo, oral, 10 mg/Kg, 10 mg/Kg PO versus 1 mg/Kg IV; read-out: F (oral bioavailability)
parameter measured: bioavailability

Data request: Could you tell me which bioavailability is on file for O=C(Nc1ccccc1)N1CCN(Cc2cccc(OCCC3CCCCC3)c2)CC1 [MGH-CP-715] ?
Data returned: ~5%

====

parameter measured: GI50 (nM)
Write the answer as a number in nM, unit excluded.

Data request: Given the entry `O=C(Nc1ccccc1)N1CCN(C(=O)c2cccc(OCCC3CCCCC3)c2)CC1` , what GI50 was observed with H226?
Data returned: 73

Data request: Given the entry CC1CN(C(=O)Nc2ccccc2)CCN1C(=O)c1cccc(OCCC2CCCCC2)c1 (centres unmarked) , what GI50 was observed with H226?
Data returned: 1040

Data request: Given the entry `O=C(Nc1ccccc1)N1CCN(C(=O)c2ccnc(OCCC3CCCCC3)c2)CC1` , what GI50 was observed with H226?
Data returned: 236

Data request: Given the entry `O=C(Oc1ccccc1)N1CCN(C(=O)c2cccc(OCCC3CCCCC3)c2)CC1` , what GI50 was observed with H226?
Data returned: 2640

Data request: Given the entry `C[C@@H]1CN(C(=O)Nc2ccccc2)[C@@H](C)CN1C(=O)c1cccc(OCCC2CCCCC2)c1` , what GI50 was observed with H226?
Data returned: 1970

====

# test: Metabolic stability MLM
# test conditions: 15 min; % parent remained per Table G2
Task for the reader: assign each of the following compounds its reported Met stab MLM, 15 min.
Please append the unit to your numeric answer.

Data request: Could you tell me which Met stab MLM, 15 min is on file for O=C(Nc1ccccc1)N1CCN(Cc2cccc(OCCC3CCCCC3)c2)CC1 [MGH-CP-715] ?
Data returned: 66%

Data request: Could you tell me which Met stab MLM, 15 min is on file for O=C(Oc1ccccc1)N1CCN(C(=O)c2cccc(OCCC3CCCCC3)c2)CC1 [MGH-CP-714] ?
Data returned: 29%

Data request: Could you tell me which Met stab MLM, 15 min is on file for C[C@@H]1CN(C(=O)Nc2ccccc2)[C@@H](C)CN1C(=O)c1cccc(OCCC2CCCCC2)c1 [MGH-CP-709] ?
Data returned: 26%

====

# test: Pharmacokinetics / oral bioavailability in male CD-1 mice
# Assay type: in vivo
# test conditions: male, CD-1, mouse, in vivo; 10 mg/Kg PO; read-out: C0/Cmax (Cmax)
# Source text: Example G. Oral Bioavailability of MGH-CP-715 in Male CD-1Mice
parameter measured: Cmax (ng/mL)
Write the answer as a number in ng/mL, unit excluded.

Data request: Could you tell me which Cmax is on file for `O=C(Nc1ccccc1)N1CCN(Cc2cccc(OCCC3CCCCC3)c2)CC1` ?
Data returned: 108

====

# test: Metabolic stability HLM
# Assay type: in vitro ADME, human
# test conditions: 15 min
parameter measured: Met stab HLM, 15 min (%)
Write the answer as a number in %, unit excluded.

Data request: Could you tell me which Met stab HLM, 15 min is on file for `O=C(Nc1ccccc1)N1CCN(C(=O)c2cccc(OCCC3CCCCC3)c2)CC1` ?
Data returned: 44

====

# test: Pharmacokinetics / oral bioavailability in male CD-1 mice
# Assay type: in vivo
# test conditions: male, CD-1, mouse, in vivo; 1 mg/Kg IV
parameter measured: AUC(0-t) (ng·h/mL)
Write the answer as a number in ng·h/mL, unit excluded.

Data request: Could you tell me which AUC(0-t) is on file for `O=C(Nc1ccccc1)N1CCN(Cc2cccc(OCCC3CCCCC3)c2)CC1` ?
Data returned: 663

====

# test: Pharmacokinetics / oral bioavailability in male CD-1 mice
# Type: in vivo
# test conditions: male, CD-1, mouse, in vivo; 1 mg/Kg IV
parameter measured: MRT (h)
Write the answer as a number in h, unit excluded.

Data request: Could you tell me which MRT is on file for `O=C(Nc1ccccc1)N1CCN(Cc2cccc(OCCC3CCCCC3)c2)CC1` ?
Data returned: 1.47

====

# test: Metabolic stability MLM
# test conditions: 15 min; % parent remained per Table G2
parameter measured: Met stab MLM, 15 min (%)
Write the answer as a number in %, unit excluded.

Data request: Could you tell me which Met stab MLM, 15 min is on file for O=C(Nc1ccccc1)N1CCN(C(=O)c2cccc(OCCC3CCCCC3)c2)CC1 [TM2] ?
Data returned: 36

Data request: Could you tell me which Met stab MLM, 15 min is on file for CC1CN(C(=O)Nc2ccccc2)CCN1C(=O)c1cccc(OCCC2CCCCC2)c1 (centres unmarked) [MGH-CP-710] ?
Data returned: 41

Data request: Could you tell me which Met stab MLM, 15 min is on file for O=C(Oc1ccccc1)N1CCN(Cc2cccc(OCCC3CCCCC3)c2)CC1 [MGH-CP-718] ?
Data returned: 59

Data request: Could you tell me which Met stab MLM, 15 min is on file for O=C(Nc1ccccc1)N1C[C@@H]2C[C@H]1CN2C(=O)c1cccc(OCCC2CCCCC2)c1 [MGH-CP-717] ?
Data returned: 6

Data request: Could you tell me which Met stab MLM, 15 min is on file for O=C(Nc1ccccc1)N1CCN(C(=O)c2ccnc(OCCC3CCCCC3)c2)CC1 [MGH-CP-716] ?
Data returned: 40

====

# test: Metabolic stability in human hepatic microsomes (Scripps Florida DMPK Core)
# Format: in vitro ADME
# test conditions: liver microsomes, hepatic microsomes, read-out: Intrinsic Clearance, Human (Clint)
parameter measured: microsomal CLint (µL/min/mg)
Write the answer as a number in µL/min/mg, unit excluded.

Data request: Could you tell me which microsomal CLint is on file for O=C(Nc1ccccc1)N1CCN([S+]([O-])c2cccc(OCCc3ccccc3)c2)CC1 (centres unmarked) [TM100] ?
Data returned: 120

Data request: Could you tell me which microsomal CLint is on file for Nc1cccc(NC(=O)N2CCN(C(=O)c3cccc(OCCC4CCCCC4)c3)CC2)c1 [TM93] ?
Data returned: 62

====

# test: Metabolic stability CLint, mouse (Tables H1, H2)
parameter measured: CLint scaled
Please append the unit to your numeric answer.

Data request: Could you tell me which CLint scaled is on file for `O=C(NCCc1cccc(F)c1)C1CCN(C(=O)Oc2ccccc2)CC1` ?
Data returned: 87 mL/min/kg

Data request: Could you tell me which CLint scaled is on file for `O=C(Nc1ccccc1)C1CCN(C(=O)Oc2cccnc2)CC1` ?
Data returned: 47 mL/min/kg

Data request: Could you tell me which CLint scaled is on file for `O=C(Nc1ncccn1)N1CCN(C(=O)c2cccc(OCCC3CCCCC3)c2)CC1` ?
Data returned: 156 mL/min/kg

====

# test: Pharmacokinetics / oral bioavailability in male CD-1 mice
# Type: in vivo
# test conditions: male, CD-1, mouse, in vivo; 1 mg/Kg IV
parameter measured: clearance (mL/min/kg)
Write the answer as a number in mL/min/kg, unit excluded.

Data request: Could you tell me which clearance is on file for `O=C(Nc1ccccc1)N1CCN(Cc2cccc(OCCC3CCCCC3)c2)CC1` ?
Data returned: 22.6

====

# test: in vitro
# test conditions: human
parameter measured: CLint scaled
Please append the unit to your numeric answer.

Data request: Could you tell me which CLint scaled is on file for `NC(=O)c1cncc(OC(=O)N2CCC(CCc3cccc(C(=O)N4CCCC4)c3)CC2)c1` ?
Data returned: 86 mL/min/kg

====

# test: Aqueous solubility (Aq Sol)
# Format: physicochemical
parameter measured: Aq Sol (µM)
Write the answer as a number in µM, unit excluded.

Data request: Could you tell me which Aq Sol is on file for O=C(Nc1ccccc1)N1CCN(C(=O)c2cccc(OCCC3CCCCC3)c2)CC1 [TM2] ?
Data returned: 2.3

Data request: Could you tell me which Aq Sol is on file for C[C@@H]1CN(C(=O)Nc2ccccc2)[C@@H](C)CN1C(=O)c1cccc(OCCC2CCCCC2)c1 [MGH-CP-709] ?
Data returned: 2

====

# test: Pharmacokinetics / oral bioavailability in male CD-1 mice
# Type: in vivo
# test conditions: male, CD-1, mouse, in vivo; 1 mg/Kg IV; read-out: C0/Cmax (C0)
parameter measured: Cmax

Data request: Could you tell me which Cmax is on file for `O=C(Nc1ccccc1)N1CCN(Cc2cccc(OCCC3CCCCC3)c2)CC1` ?
Data returned: 834 ng/mL
